Test system: RXF 393 renal
Assay: NCI tumour cell line growth inhibition, 48 h; in the data active means GI50 below about 0.43 µM; inactive means the rest
Respond with a class label; see active, inactive

Completed entries (count: 5):
{"columns": ["Molecule", "Group Label"],
 "data": [
  ["CC(=O)O[C@@H]1c2c(c3c(=O)c4cccc(O)c4c(=O)c=3c2=[N+]=[N-])[C@H](OC(C)=O)[C@@H](OC(C)=O)[C@]1(C)O", "active"],
  ["O=C1CN=C(c2ccc[nH]2)c2cc(Cl)ccc2N1", "inactive"],
  ["COc1cccc(/C=N\\NC(=O)c2ccncc2)c1O", "inactive"],
  ["CCCCCSc1ccc2nc(NC(=O)OCC)sc2c1", "inactive"],
  ["O=c1[nH]c(-c2ccc(Cl)c(Cl)c2)cn1-c1ccc(Cl)cc1", "inactive"]
]}

Challenge: Call for entry Cc1cc(-c2nc3sc(C)cn3c2/C=N/N=C(N)N)c(C)s1 :
Response given: inactive

These entries and their values trace back to PubChem BioAssay (NCI).
